The values you see were collected from the supplement of paper PMC7877785.

- Test description: self-splicing fitness, log relative to wild type (ln ratio); higher = more splicing; Tetrahymena group I intron in knt gene, E. coli kanamycin selection, DiMSum; sequences stand for … in CUCUCU…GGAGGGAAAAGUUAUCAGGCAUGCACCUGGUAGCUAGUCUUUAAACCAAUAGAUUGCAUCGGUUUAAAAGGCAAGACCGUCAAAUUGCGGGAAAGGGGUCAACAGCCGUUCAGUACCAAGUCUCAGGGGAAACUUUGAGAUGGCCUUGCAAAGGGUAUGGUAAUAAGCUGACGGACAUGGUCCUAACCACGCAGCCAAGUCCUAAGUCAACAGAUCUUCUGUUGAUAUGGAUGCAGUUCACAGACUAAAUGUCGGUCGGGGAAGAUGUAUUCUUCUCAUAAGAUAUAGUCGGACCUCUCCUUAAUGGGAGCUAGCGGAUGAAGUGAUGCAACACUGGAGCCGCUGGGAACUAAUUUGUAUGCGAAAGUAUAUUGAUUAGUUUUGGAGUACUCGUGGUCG;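 further: selection with 25 µg/mL kanamycin versus none on LB agar overnight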
- Condition context: 37 °C
The entries below are paired with their reported self-splicing fitness (ln).
Please reply with the value in numeric form only.

Some sequences with known self-splicing fitness (ln) results, for comparison:
GUACAGCAAUAUUACGUGGA -2.52
UACCAGCAAUAUUACGACGG -0.237
GGGCAGCAAUAUUACGUGUA -0.515

Fill in reported self-splicing fitness (ln) for this entry: UCUGAGCAAUAUUACGCGAC
-2.85

Look up and report measured self-splicing fitness (ln) for this entry: AUAGAGCAAUAUUACGCACU
0.815

---

- Test description: self-splicing fitness, log relative to wild type (ln ratio); higher = more splicing; Tetrahymena group I intron in knt gene, E. coli kanamycin selection, DiMSum; sequences stand for … in CUCUCU…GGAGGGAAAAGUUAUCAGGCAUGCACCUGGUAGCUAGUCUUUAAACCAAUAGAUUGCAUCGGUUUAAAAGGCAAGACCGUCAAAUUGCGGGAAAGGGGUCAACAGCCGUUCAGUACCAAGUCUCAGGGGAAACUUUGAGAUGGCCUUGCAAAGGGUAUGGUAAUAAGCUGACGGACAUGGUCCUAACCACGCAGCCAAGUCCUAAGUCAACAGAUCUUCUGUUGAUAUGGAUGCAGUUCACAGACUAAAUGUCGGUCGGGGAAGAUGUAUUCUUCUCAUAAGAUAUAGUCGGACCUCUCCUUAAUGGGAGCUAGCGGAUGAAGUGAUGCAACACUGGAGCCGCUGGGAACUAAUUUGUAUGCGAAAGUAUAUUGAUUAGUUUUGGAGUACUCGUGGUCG
- Condition context: 30 °C
# Lookup of reported self-splicing fitness (ln) keyed by entry
// print number alone

These recorded examples may help you get a feel for the data.
GUUUAGCAAUAUUACGUUAA -1.87
GGUUAGCAAUAUUACGACUA 0.135
UUUAAGCAAUAUUACGUAAU -2.15
GCGCAGCAAUAUUACGCUAG -3.26
UGAGAGCAAUAUUACGGCAA -1.61

State its self-splicing fitness (ln) for this sequence: UCCGAGCAAUAUUACGCCUG
-2.12

Name the recorded self-splicing fitness (ln) of the item CCACAGCAAUAUUACGAAAG in your answer.
-1.55

Write down self-splicing fitness (ln) measured for item CCGUAGCAAUAUUACGGAGU
-2.68

For the sequence UUAUAGCAAUAUUACGACGA , report self-splicing fitness (ln).
-0.378

For the sequence AUUCAGCAAUAUUACGGUAC , give its reported self-splicing fitness (ln).
-2.27

Return value of self-splicing fitness (ln) for input GGCGAGCAAUAUUACGUCGG , no commentary.
-3.78

Please report self-splicing fitness (ln) for the following sequence: UUGCAGCAAUAUUACGGAUA
-1.92

Tell us which self-splicing fitness (ln) value is on record for UUUCAGCAAUAUUACGCAGU
-4.25

Quote self-splicing fitness (ln) reported for CUAAAGCAAUAUUACGAUCU please.
-4.75
